What protein stability index was measured for each of the following?
# Tested on: Saccharomyces cerevisiae
# experiment: protein stability index of tFT-peptide fusion (C-terminal peptide) (PSI (0-1 scale)); higher = more stable (slower turnover)
# testContext: genetic background: das1 deletion; temperature: 30 C

(Q) Lab note: need protein stability index for IGAPASGLRIRV [COP1 C-terminal 12 aa] on Saccharomyces cerevisiae, anyone have it?
(A) 0.693

(Q) Lab note: need protein stability index for RDAEILAKIAKD [HSP10 C-terminal 12 aa] on Saccharomyces cerevisiae, anyone have it?
(A) 0.683

(Q) Lab note: need protein stability index for PNLSRANFTRNK [RSA1 C-terminal 12 aa] on Saccharomyces cerevisiae, anyone have it?
(A) 0.695

(Q) Lab note: need protein stability index for SETIEELLKEVE [HYR1 C-terminal 12 aa] on Saccharomyces cerevisiae, anyone have it?
(A) 0.708

(Q) Lab note: need protein stability index for IVPLSELEKTLI [XKS1 C-terminal 12 aa] on Saccharomyces cerevisiae, anyone have it?
(A) 0.696

(Q) Lab note: need protein stability index for KMIESLKSKLKE [CIN5 C-terminal 12 aa] on Saccharomyces cerevisiae, anyone have it?
(A) 0.693

(Q) Lab note: need protein stability index for KVHEHDAKNDSK [CMP2 C-terminal 12 aa] on Saccharomyces cerevisiae, anyone have it?
(A) 0.702

(Q) Lab note: need protein stability index for LFCNYITETVEN [ASH1 C-terminal 12 aa] on Saccharomyces cerevisiae, anyone have it?
(A) 0.694

(Q) Lab note: need protein stability index for LMYIYQAFTTQD [GDT1 C-terminal 12 aa] on Saccharomyces cerevisiae, anyone have it?
(A) 0.684

(Q) Lab note: need protein stability index for QSMLDGNSPESV [DCR2 C-terminal 12 aa] on Saccharomyces cerevisiae, anyone have it?
(A) 0.699

(Q) Lab note: need protein stability index for SKKTTISAKKQQ [SGE1 C-terminal 12 aa] on Saccharomyces cerevisiae, anyone have it?
(A) 0.713

(Q) Lab note: need protein stability index for RNNEHSHKKYNQ [YER090C-A C-terminal 12 aa] on Saccharomyces cerevisiae, anyone have it?
(A) 0.711

(Q) Lab note: need protein stability index for ICYTFKHLVSHK [FRT2 C-terminal 12 aa] on Saccharomyces cerevisiae, anyone have it?
(A) 0.691

(Q) Lab note: need protein stability index for KNLWMRENEITI [HES1 C-terminal 12 aa] on Saccharomyces cerevisiae, anyone have it?
(A) 0.711

(Q) Lab note: need protein stability index for DRLKRRNNDYGF [MSO1 C-terminal 12 aa] on Saccharomyces cerevisiae, anyone have it?
(A) 0.695

(Q) Lab note: need protein stability index for FVDGIANSKKST [SRB7 C-terminal 12 aa] on Saccharomyces cerevisiae, anyone have it?
(A) 0.699

(Q) Lab note: need protein stability index for IKVDNIVHIRND [YFH7 C-terminal 12 aa] on Saccharomyces cerevisiae, anyone have it?
(A) 0.693

(Q) Lab note: need protein stability index for PGDTLIEVIDLT [WSS1 C-terminal 12 aa] on Saccharomyces cerevisiae, anyone have it?
(A) 0.692

(Q) Lab note: need protein stability index for CNYYYHPRITFA [RMT2 C-terminal 12 aa] on Saccharomyces cerevisiae, anyone have it?
(A) 0.691
